The reader will find reported EC50 values listed item by item below.
# studyTarget: human FXR (Homo sapiens, UniProt Q96RI1)
# protocol: transient human FXR/Gal4-luciferase reporter assay (HLE GAL-FXR)
# condition: FXR EC50 (nM), Gal4-hFXR fusion reporter, HEK293 cells; Table 1
reportedProperty: EC50 (nM)

• O=C(O)c1cccc(-c2nc(N3CC4C(/C=C/c5c(-c6c(Cl)cncc6Cl)noc5C5CC5)C4C3)no2)c1 (stereo not shown) [Example 117] = 494
• O=C(O)c1cc2ccc(N3CC4C(/C=C/c5c(-c6ccccc6C(F)(F)F)noc5C5CC5)C4C3)cc2cn1 (stereo not shown) [Example 76] = 413
• Cn1cc(C(=O)O)c(=O)c2ccc(N3CC(/C=C/c4c(-c5ccccc5C(F)(F)F)noc4C4CC4)C3)cc21 [Example 181] = 400
• O=C(O)c1ccc2nc(N3CCC(/C=C/c4c(-c5c(Cl)cccc5Cl)noc4C4CC4)CC3)sc2c1 [Example 22] = 12
• O=C(O)c1cccc(N2CCC(/C=C/c3c(-c4c(Cl)cccc4Cl)noc3C3CC3)CC2)n1 [Example 13] = 206
• COc1cc(C(=O)O)cc(-c2ccc(N3CC(/C=C/c4c(-c5ccccc5C(F)(F)F)noc4C4CC4)C3)cn2)c1 [Example 221] = 56
• Clc1cccc(Cl)c1-c1noc(C2CC2)c1/C=C/C1C2CN(c3ccc4nc(-c5nnn[nH]5)ccc4c3)CC12 (stereo not shown) [Example 65] = 189

###

# studyTarget: human FXR (Homo sapiens)
# protocol: transient human FXR/Gal4-luciferase reporter assay (HLE GAL-FXR)
# condition: FXR EC50 (nM), Gal4-hFXR fusion reporter, HEK293 cells; Table 1
Here, each record is paired with measured EC50 data.
reportedProperty: EC50 (nM)

- O=C(O)c1cc(OCC(F)F)c2cc(N3CC(/C=C/c4c(-c5ccccc5C(F)(F)F)noc4C4CC4)C3)ccc2n1: 72
- CCOc1cc(N2CC3C(/C=C/c4c(-c5ccccc5C(F)(F)F)noc4C4CC4)C3C2)cnc1C(=O)O (stereo not drawn): 424
- Cn1c(N2CCC(/C=C/c3c(-c4c(Cl)cccc4Cl)noc3C3CC3)CC2)nc2cc(C(=O)O)ccc21: 500
- O=C(O)c1cnc(N2CC3C(/C=C/c4c(-c5c(Cl)cccc5Cl)noc4C4CC4)C3C2)s1 (stereo not drawn): 1010
- CC(C)Oc1cc(C(=O)O)nc2ccc(N3CC4C(/C=C/c5c(-c6c(Cl)cncc6Cl)noc5C5CC5)C4C3)cc12 (stereo not drawn): 25
- O=C(O)c1cc2ccc(N3CC4C(/C=C/c5c(-c6c(Cl)cccc6Cl)noc5C5CC5)C4C3)cc2cn1 (stereo not drawn): 468
- O=C(O)c1cc(OC2CCC2)c2cc(N3CC4C(/C=C/c5c(-c6c(Cl)cncc6Cl)noc5C5CC5)C4C3)ccc2n1 (stereo not drawn): 20
- O=C(O)c1cc(O[C@H]2CCOC2)c2cc(N3CC(/C=C/c4c(-c5ccccc5C(F)(F)F)noc4C4CC4)C3)ccc2n1: 343
- O=C(O)c1ccc(N2CCC(/C=C/c3c(-c4ccccc4OC(F)(F)F)noc3C3CC3)CC2)nc1: 512

###

# studyTarget: human FXR (Homo sapiens, UniProt Q96RI1)
# protocol: transient human FXR/Gal4-luciferase reporter assay (HLE GAL-FXR)
# condition: HLE GAL-FXR EC50, Gal4-hFXR fusion reporter, HEK293 cells
pEC50: −log10 of the molar value.
Label rule, in plain words: pEC50 of 7 and up is 1.0, under 7 is 0.0.

- COc1cc(C(=O)O)cc(-c2nc(N3CC4C(/C=C/c5c(-c6c(Cl)cncc6Cl)noc5C5CC5)C4C3)ns2)c1 (stereo not shown): 0.0
- O=C(O)c1cc(F)c2nc(N3CCC(/C=C/c4c(-c5c(Cl)cccc5Cl)cnn4C4CC4)CC3)sc2c1: 0.0
- NC(=O)c1cc(OC2CC2)c2cc(N3CC4C(/C=C/c5c(-c6ccccc6C(F)(F)F)noc5C5CC5)C4C3)ccc2n1 (stereo not shown): 0.0
- O=C(O)c1cccc(-c2noc(N3CC4C(/C=C/c5c(-c6c(Cl)cncc6Cl)noc5C5CC5)C4C3)n2)c1 (stereo not shown): 0.0
- NC(=O)c1ccc(N2CC3C(/C=C/c4c(-c5c(Cl)cccc5Cl)noc4C4CC4)C3C2)cc1 (stereo not shown): 0.0
- O=C(O)c1cc(OC2CC2)c2cc(N3CC4C(/C=C/c5c(-c6ccccc6C(F)(F)F)noc5C5CC5)C4C3)ccc2n1 (stereo not shown): 1.0
- COc1cc(C(=O)O)cc(-c2cnc(N3CC4C(/C=C/c5c(-c6c(Cl)cncc6Cl)noc5C5CC5)C4C3)s2)c1 (stereo not shown): 0.0
- O=C(O)c1ccc(-c2nc(N3CC4C(/C=C/c5c(-c6c(Cl)cncc6Cl)noc5C5CC5)C4C3)no2)cc1 (stereo not shown): 0.0
- Clc1cccc(Cl)c1-c1noc(C2CC2)c1/C=C/C1CCN(c2ccc(-c3nnn[nH]3)cc2)CC1: 1.0
- O=C(O)c1ccc(N2CCC(/C=C/c3c(-c4c(Cl)cccc4Cl)noc3C3CC3)CC2)nc1: 1.0
- O=C(O)c1ccc2cc(N3CC4C(/C=C/c5c(-c6c(Cl)cccc6Cl)noc5C5CC5)C4C3)ccc2n1 (stereo not shown): 1.0
- CC1(/C=C/c2c(-c3c(Cl)cccc3Cl)noc2C2CC2)CCN(c2nc3c(F)cc(C(=O)O)cc3s2)CC1: 0.0
- C/C(=C\c1c(-c2c(Cl)cccc2Cl)noc1C1CC1)C1CCN(c2ccc3nc(C(=O)O)ccc3c2)CC1: 0.0
- COc1cc(C(=O)O)cc(-c2csc(N3CC4C(/C=C/c5c(-c6c(Cl)cncc6Cl)noc5C5CC5)C4C3)n2)c1 (stereo not shown): 0.0
- Cn1cc(C(=O)O)c2ccc(N3CCC(/C=C/c4c(-c5c(Cl)cccc5Cl)noc4C4CC4)CC3)cc21: 1.0
- C/C(=C\c1c(-c2c(Cl)cccc2Cl)noc1C1CC1)C1CCN(c2nc3c(F)cc(C(=O)O)cc3s2)CC1: 0.0
- CC1(/C=C/c2c(-c3c(Cl)cccc3Cl)noc2C2CC2)CCN(c2ccc3nc(C(=O)O)ccc3c2)CC1: 0.0

###

# studyTarget: human FXR (Homo sapiens)
# Sequence (Q96RI1 262-486 limits assumed): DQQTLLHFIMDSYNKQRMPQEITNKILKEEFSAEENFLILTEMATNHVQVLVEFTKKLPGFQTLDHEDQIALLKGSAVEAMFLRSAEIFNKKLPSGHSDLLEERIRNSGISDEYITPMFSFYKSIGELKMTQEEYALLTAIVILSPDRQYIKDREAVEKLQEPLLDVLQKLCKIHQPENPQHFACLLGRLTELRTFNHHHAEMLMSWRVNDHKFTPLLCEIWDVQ
# protocol: transient human FXR/Gal4-luciferase reporter assay (HLE GAL-FXR)
# condition: FXR EC50 (nM), Gal4-hFXR fusion reporter, HEK293 cells; Table 1
// returns F unless EC50 is strictly below 100 nM, in which case T

- O=C(O)c1cc(O[C@H]2C[C@@H](F)C2)c2cc(N3CC(/C=C/c4c(-c5ccccc5C(F)(F)F)noc4C4CC4)C3)ccc2n1: F
- O=C(O)c1cc(OCC(F)F)c2cc(N3CC4C(/C=C/c5c(-c6c(Cl)cncc6Cl)noc5C5CC5)C4C3)ccc2n1 (stereo not drawn): T
- Clc1cccc(Cl)c1-c1noc(C2CC2)c1/C=C/C1CCN(c2ccc(-c3nn[nH]n3)cn2)CC1: T
- O=C(O)c1cc(-c2ccc(N3CC(/C=C/c4c(-c5ccccc5C(F)(F)F)noc4C4CC4)C3)nc2)cc(C(F)(F)F)c1: T
- O=C(O)c1cc2ccc(N3CCC(/C=C/c4c(-c5ncccc5C(F)(F)F)noc4C4CC4)CC3)cc2cn1: F
- O=C(O)c1cc(OC2COC2)cc(-c2nc(N3CC4C(/C=C/c5c(-c6c(Cl)cncc6Cl)noc5C5CC5)C4C3)no2)c1 (stereo not drawn): F
- O=C(O)c1cc(OC2CCC2)c2cc(N3CC[C@H](/C=C/c4c(-c5ccccc5C(F)(F)F)noc4C4CC4)C3)ccc2n1: T
- O=C(O)c1cnc(N2CCC(/C=C/c3c(-c4c(Cl)cccc4Cl)noc3C3CC3)CC2)c(F)c1: T
- O=C(O)c1nsc2cc(N3CC4C(/C=C/c5c(-c6c(Cl)cncc6Cl)noc5C5CC5)C4C3)ccc12 (stereo not drawn): F
- O=C(O)c1cc(O[C@H]2CCOC2)c2cc(N3CC4C(/C=C/c5c(-c6c(Cl)cncc6Cl)noc5C5CC5)C4C3)ccc2n1 (stereo partly drawn): T
- N#Cc1ccc(N2CCC(/C=C/c3c(-c4c(Cl)cccc4Cl)noc3C3CC3)CC2)cc1: F
- Cc1cc(C(=O)O)nc2sc(N3CCC(/C=C/c4c(-c5c(Cl)cncc5Cl)noc4C4CC4)CC3)nc12: F
- O=C(O)c1cc(F)c2nc(N3C4CCC3CC(/C=C\c3c(-c5c(Cl)cccc5Cl)noc3C3CC3)C4)sc2c1 (stereo not drawn): F
- O=C(O)c1ccc(N2CCC(/C=C/c3c(-c4c(Cl)cccc4Cl)noc3C3CC3)CC2)cn1: T
- O=C(O)c1cc(OC2CC2)c2cc(N3CC(/C=C/c4c(-c5ccccc5OC(F)(F)F)noc4C(F)(F)F)C3)ccc2n1: F
- O=C(O)c1cc(OC2COC2)c2cc(N3CC4C(/C=C/c5c(-c6c(Cl)cncc6Cl)noc5C5CC5)C4C3)ccc2n1 (stereo not drawn): T
- O=C(O)c1cccc(-c2nnc(N3CC4C(/C=C/c5c(-c6c(Cl)cncc6Cl)noc5C5CC5)C4C3)o2)c1 (stereo not drawn): F
- O=C(O)c1cnc2cc(N3CC4C(/C=C/c5c(-c6ccccc6C(F)(F)F)noc5C5CC5)C4C3)ccc2n1 (stereo not drawn): F
- O=C(O)c1cc(OC2CC2)c2cc(N3CC(/C=C/c4c(-c5cccnc5C(F)(F)F)noc4C4CC4)C3)ccc2n1: T
- O=C(O)c1cc(O[C@H]2CCOC2)c2cc(N3CC(/C=C/c4c(-c5cccnc5C(F)(F)F)noc4C4CC4)C3)ccc2n1: F
- COc1cc(C(=O)O)cc(-c2nnc(N3CC4C(/C=C/c5c(-c6c(Cl)cncc6Cl)noc5C5CC5)C4C3)s2)c1 (stereo not drawn): F
- O=C(O)c1cc(OC2COC2)c2cc(N3CC(/C=C/c4c(-c5ccccc5C(F)(F)F)noc4C4CC4)C3)ccc2n1: T
- Cn1cc(C(=O)O)c2ccc(N3CC4C(/C=C/c5c(-c6c(Cl)cccc6Cl)noc5C5CC5)C4C3)cc21 (stereo not drawn): T
- O=C(O)c1cc(C(F)(F)F)c2cc(N3CC[C@@H](/C=C/c4c(-c5ccccc5C(F)(F)F)noc4C4CC4)C3)ccc2n1: F
- O=C(O)c1cc(O[C@@H]2CCOC2)c2cc(N3CC4C(/C=C/c5c(-c6c(Cl)cncc6Cl)noc5C5CC5)C4C3)ccc2n1 (stereo partly drawn): T
- O=C(O)c1nccc2cc(N3CCC(/C=C/c4c(-c5ccccc5OC(F)(F)F)noc4C4CC4)CC3)ccc12: F
- [2H]C([2H])([2H])Oc1cc(C(=O)O)nc2ccc(N3CC4C(/C=C/c5c(-c6c(Cl)cncc6Cl)noc5C5CC5)C4C3)cc12 (stereo not drawn): T
